What follows is literature data on IC50 for KIF18A (Homo sapiens (Human)).

# input Short answer please: IC50, KIF18A (Homo sapiens (Human)), entry "O=C(Nc1cccc2c1oc1ccccc12)c1ccc(NS(=O)(=O)CCO)cc1N1CCC2(CC1)CC2"
# output < 200 nM

# input # returns recorded IC50 (system: KIF18A (Homo sapiens (Human))) for O=C(Nc1ccc2c(n1)N1CCC(F)(F)CC1CO2)c1ccc(NS(=O)(=O)CCO)cc1N1CCC2(CC1)CC2 (stereo not shown)
# output < 50 nM

# input Field: IC50 (KIF18A (Homo sapiens (Human))). Entry: "CC(C)(O)Cn1ccc2c(NC(=O)c3ccc(NS(=O)(=O)CCO)cc3N3CCC4(CC3)CC4)cccc21"
# output 50 to 500 nM

# input Missing value: IC50, KIF18A (Homo sapiens (Human)), entry O=C(Nc1cccc2c1nc1n2C2CC2CC1)c1ccc(NS(=O)(=O)CCO)cc1N1CCC2(CC1)CC2 (stereo not shown) . Fill in?
# output < 200 nM

# input Give KIF18A (Homo sapiens (Human)) IC50 for O=C(Nc1ccnc2c1OCC1COCCN21)c1ccc(NS(=O)(=O)CCO)cc1N1CCC2(CC1)CC2 (stereo not shown)
# output < 50 nM

# input Record "CN1CCCCc2c(NC(=O)c3ccc(NS(=O)(=O)CCO)cc3N3CCC4(CC3)CC4)cccc21" : what is its IC50 with KIF18A (Homo sapiens (Human))?
# output 500 to 5000 nM

# input API: value(readout=IC50, system=KIF18A (Homo sapiens (Human))) for record O=C(Nc1cccc2c3c(nn12)C1CC1C3)c1ccc(NS(=O)(=O)CCO)cc1N1CCC2(CC1)CC2 (stereo not shown)
# output < 200 nM

---

Field: pIC50. System: KIF18A (Homo sapiens (Human), UniProt Q8NI77). Provenance: assorted publications.
pIC50: −log10 of the molar value.

# input For KIF18A (Homo sapiens (Human), UniProt Q8NI77), provide pIC50 of "CN1CCc2ccc(NC(=O)c3ccc(NS(=O)(=O)CCO)cc3N3CCC4(CC3)CC4)nc21" please.
# output > 6.70

# input Provide value of pIC50 for this record tested with KIF18A (Homo sapiens (Human), UniProt Q8NI77): "CN1CCn2c(nc3c(NC(=O)c4ccc(NS(=O)(=O)CCO)cc4N4CCC5(CC4)CC5)cccc32)C1"
# output > 6.30

# input Notebook entry, KIF18A (Homo sapiens (Human), UniProt Q8NI77) assay: pIC50 of "O=C(Nc1ncnc2c1ccn2CC1CC1)c1ccc(NS(=O)(=O)CCO)cc1N1CCC2(CC1)CC2" = ?
# output 5.30 to 6.30

# input Entry O=C(Nc1cccc2c1OCC1CC(F)(F)CCN21)c1ccc(NS(=O)(=O)CCO)cc1N1CCC2(CC1)CC2 (stereo not drawn) , system KIF18A (Homo sapiens (Human), UniProt Q8NI77): what pIC50 was measured?
# output ≥ 7.30

# input Hello, I am looking for reported pIC50 with KIF18A (Homo sapiens (Human), UniProt Q8NI77) for CCS(=O)(=O)Nc1ccc(C(=O)Nc2cccc3c2cc2n3CCC(F)(F)C2O)c(N2CCC(=C(F)F)CC2)c1 (stereo not drawn) . Could you help?
# output ≥ 7.30

# input Give recorded pIC50 with KIF18A (Homo sapiens (Human), UniProt Q8NI77) for the following molecule: "O=C(Nc1ccnc2c1cc1n2CCOC1)c1ccc(NS(=O)(=O)CCO)cc1N1CCC(=C(F)F)CC1"
# output ≥ 7.30

# input Which pIC50 is reported with KIF18A (Homo sapiens (Human), UniProt Q8NI77) for this entry: "O=C(Nc1ccc(=O)n(C2CCC(F)(F)CC2)n1)c1cc2c(cc1N1CCC3(CC1)CC3)N(S(=O)(=O)CCO)CC2" ?
# output > 7.30

# input Lab request: please report pIC50 under test system KIF18A (Homo sapiens (Human), UniProt Q8NI77) for "O=C(Nc1cccc2c1CCN2CC1CC1)c1ccc(NS(=O)(=O)CCO)cc1OC1CCC(F)(F)CC1"
# output < 5.30

# input Lab note: need pIC50 with KIF18A (Homo sapiens (Human), UniProt Q8NI77) for entry "O=C(Nc1cccc2c3c(nn12)CCCCC3)c1ccc(NS(=O)(=O)CCO)cc1N1CCC2(CC1)CC2" , please look it up.
# output > 6.70

# input Form: Entry = "O=C(Nc1cccc2c1nc1n2CCOC1)c1ccc(NS(=O)(=O)CCO)cc1N1CCC(=C(F)F)CC1" | System = KIF18A (Homo sapiens (Human), UniProt Q8NI77) | pIC50 = ____
# output ≥ 7.30

# input Given the entry "O=C(Nc1cccc2c1cnn2CC1CC1)c1ccc(NS(=O)(=O)CCO)cc1N1CCC2(CC1)CC2" , what pIC50 was observed with KIF18A (Homo sapiens (Human), UniProt Q8NI77)?
# output 6.30 to 7.30

# input Under KIF18A (Homo sapiens (Human), UniProt Q8NI77): pIC50 value of "Cn1ccc2ccc(NC(=O)c3ccc(NS(=O)(=O)CCO)cc3N3CCC4(CC3)CC4)nc21" ?
# output > 6.70

# input Return pIC50 measured with KIF18A (Homo sapiens (Human), UniProt Q8NI77) given this molecule: "O=C(Nc1cccc2c1nc1n2CCC12CC2)c1ccc(NS(=O)(=O)CCO)cc1N1CCC2(CC1)CC2"
# output > 6.30

# input Value wanted: pIC50 (KIF18A (Homo sapiens (Human), UniProt Q8NI77)) of entry "Cc1nc2c(NC(=O)c3ccc(NS(=O)(=O)CCO)cc3N3CCC4(CC3)CC4)cccn2c1C"
# output > 6.70

# input Lab request: please report pIC50 under test system KIF18A (Homo sapiens (Human), UniProt Q8NI77) for O=C(Nc1cccc2c1nc1n2CC(C(F)(F)F)C1)c1ccc(NS(=O)(=O)CCO)cc1N1CCC2(CC1)CC2 (stereo not drawn)
# output > 6.70
